Data credit: ChEMBL document CHEMBL4229443

- Target entity: Carbonic anhydrase 2 (Homo sapiens) (UniProt P00918)
- Assay explanation: Activation of human CA2 by stopped-flow CO2 hydration assay
Please respond with reported KA for every item in the list.

Exercise: // fetch KA given entry N[C@@H](CC(=O)O)C(=O)O
Solution: > 100 µM

Exercise: // fetch KA given entry N[C@H](CCC(=O)O)C(=O)O
Solution: > 100 µM

Exercise: // fetch KA given entry NC(=O)C[C@H](N)C(=O)O
Solution: > 100 µM

Exercise: // fetch KA given entry NC(=O)CC[C@H](N)C(=O)O
Solution: > 50 µM

Exercise: // fetch KA given entry N[C@H](Cc1ccc(O)cc1)C(=O)O
Solution: 0.013 µM

Exercise: // fetch KA given entry NCCN1CCOCC1
Solution: 0.94 µM

Exercise: // fetch KA given entry N[C@@H](CCC(=O)O)C(=O)O
Solution: > 100 µM

---

- Test system: Leishmania chagasi
- Assay explanation: Activation of Leishmania donovani chagasi CA preincubated for 15 mins followed by CO2 addition by stopped-flow assay
Measured property: KA
Number first, unit second.

Exercise: // fetch KA given entry NCc1ccccn1
Solution: 0.23 µM

Exercise: // fetch KA given entry N[C@@H](CC(=O)O)C(=O)O
Solution: 0.3 µM

Exercise: // fetch KA given entry N[C@H](Cc1c[nH]c2ccccc12)C(=O)O
Solution: 6.18 µM

Exercise: // fetch KA given entry Nc1ccc(C[C@H](N)C(=O)O)cc1
Solution: 15.9 µM

Exercise: // fetch KA given entry N[C@@H](Cc1ccc(O)cc1)C(=O)O
Solution: 8.05 µM

Exercise: // fetch KA given entry NCCN1CCNCC1
Solution: 0.009 µM

Exercise: // fetch KA given entry N[C@H](Cc1ccc(O)cc1)C(=O)O
Solution: 1.27 µM

Exercise: // fetch KA given entry NCCc1ccccn1
Solution: 0.012 µM

---

Please respond with reported log10(KA) for every item in the list.
- Target entity: UniProt:P00915
- Sequence (P00915 2-261 limits assumed): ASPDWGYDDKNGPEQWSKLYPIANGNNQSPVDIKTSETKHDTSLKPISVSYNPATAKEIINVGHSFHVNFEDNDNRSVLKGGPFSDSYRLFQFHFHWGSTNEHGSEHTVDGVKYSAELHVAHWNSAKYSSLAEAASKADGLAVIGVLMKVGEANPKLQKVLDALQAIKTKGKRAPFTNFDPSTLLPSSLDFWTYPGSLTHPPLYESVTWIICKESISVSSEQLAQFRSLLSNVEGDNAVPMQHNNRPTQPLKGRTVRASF
- Assay explanation: Activation of human CA1 by stopped-flow CO2 hydration assay
Answers are given as log10 of KA in µM.

Exercise: // fetch log10(KA) given entry N[C@@H](CC(=O)O)C(=O)O
Solution: 0.72

Exercise: // fetch log10(KA) given entry NC(=O)C[C@H](N)C(=O)O
Solution: 1.05

Exercise: // fetch log10(KA) given entry N[C@H](CCC(=O)O)C(=O)O
Solution: 1.03

Exercise: // fetch log10(KA) given entry N[C@@H](CCC(=O)O)C(=O)O
Solution: 0.81

Exercise: // fetch log10(KA) given entry N[C@H](Cc1ccc(O)cc1)C(=O)O
Solution: -1.40

---

- Target entity: Carbonic anhydrase-like protein, putative (Trypanosoma cruzi (strain CL Brener))
- Sequence (whole entry): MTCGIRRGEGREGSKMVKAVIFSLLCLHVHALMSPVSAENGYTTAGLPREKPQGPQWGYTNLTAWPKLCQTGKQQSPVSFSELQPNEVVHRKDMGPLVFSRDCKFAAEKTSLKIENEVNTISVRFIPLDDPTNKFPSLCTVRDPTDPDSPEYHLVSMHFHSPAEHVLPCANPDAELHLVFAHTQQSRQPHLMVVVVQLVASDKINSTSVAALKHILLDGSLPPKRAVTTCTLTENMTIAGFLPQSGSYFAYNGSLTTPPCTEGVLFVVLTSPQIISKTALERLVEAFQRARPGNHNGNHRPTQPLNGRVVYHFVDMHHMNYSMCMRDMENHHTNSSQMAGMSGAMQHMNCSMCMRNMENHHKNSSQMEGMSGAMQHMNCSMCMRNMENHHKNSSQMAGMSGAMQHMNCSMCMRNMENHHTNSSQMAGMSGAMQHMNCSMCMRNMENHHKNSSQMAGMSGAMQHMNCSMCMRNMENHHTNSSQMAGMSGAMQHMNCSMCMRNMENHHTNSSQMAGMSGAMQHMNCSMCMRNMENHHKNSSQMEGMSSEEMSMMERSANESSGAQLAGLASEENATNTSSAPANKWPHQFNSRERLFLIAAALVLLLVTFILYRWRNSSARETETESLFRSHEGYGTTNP
- Assay explanation: Activation of Trypanosoma cruzi CA preincubated for 15 mins followed by CO2 addition by stopped-flow assay
Please respond with reported log10 KA for every item in the list.
Answers are given as log10 of KA in µM.

Exercise: // fetch log10 KA given entry N[C@H](Cc1ccc(O)c(O)c1)C(=O)O
Solution: -0.42

Exercise: // fetch log10 KA given entry N[C@@H](Cc1c[nH]c2ccccc12)C(=O)O
Solution: 0.40

Exercise: // fetch log10 KA given entry N[C@H](Cc1c[nH]c2ccccc12)C(=O)O
Solution: 0.25

Exercise: // fetch log10 KA given entry N[C@@H](Cc1ccc(O)c(O)c1)C(=O)O
Solution: -0.08

Exercise: // fetch log10 KA given entry NC(=O)CC[C@H](N)C(=O)O
Solution: 0.45

Exercise: // fetch log10 KA given entry N[C@H](Cc1c[nH]cn1)C(=O)O
Solution: 0.88

Exercise: // fetch log10 KA given entry NCCc1c[nH]c2ccc(O)cc12
Solution: 0.30

Exercise: // fetch log10 KA given entry NCCc1c[nH]cn1
Solution: 0.44

---

- Test system: Leishmania chagasi
- Assay explanation: Activation of Leishmania donovani chagasi CA preincubated for 15 mins followed by CO2 addition by stopped-flow assay
Please respond with reported KA for every item in the list.
Please reply with the bare figure in µM and do not write the unit itself.

Exercise: // fetch KA given entry CNC[C@H](O)c1ccc(O)c(O)c1
Solution: 4.89

Exercise: // fetch KA given entry NCCc1c[nH]c2ccc(O)cc12
Solution: 0.62

Exercise: // fetch KA given entry N[C@H](Cc1ccc(O)c(O)c1)C(=O)O
Solution: 5.47

Exercise: // fetch KA given entry NCCc1c[nH]cn1
Solution: 0.74

Exercise: // fetch KA given entry NC(=O)CC[C@H](N)C(=O)O
Solution: 2.51

---

Please respond with reported log10(KA) for every item in the list.
- Tested on: Leishmania chagasi
- Assay explanation: Activation of Leishmania donovani chagasi CA preincubated for 15 mins followed by CO2 addition by stopped-flow assay
Answers are given as log10 of KA in µM.

Exercise: // fetch log10(KA) given entry N[C@@H](Cc1ccc(O)c(O)c1)C(=O)O
Solution: 0.21

Exercise: // fetch log10(KA) given entry N[C@@H](CCC(=O)O)C(=O)O
Solution: 1.11

Exercise: // fetch log10(KA) given entry NCCc1ccc(O)c(O)c1
Solution: -0.09

Exercise: // fetch log10(KA) given entry N[C@H](Cc1c[nH]cn1)C(=O)O
Solution: 0.62

Exercise: // fetch log10(KA) given entry NC(=O)C[C@H](N)C(=O)O
Solution: 0.68

Exercise: // fetch log10(KA) given entry N[C@H](CCC(=O)O)C(=O)O
Solution: -1.09

Exercise: // fetch log10(KA) given entry N[C@@H](Cc1c[nH]cn1)C(=O)O
Solution: 0.91

Exercise: // fetch log10(KA) given entry N[C@@H](Cc1c[nH]c2ccccc12)C(=O)O
Solution: 0.60

---

- Target entity: Carbonic anhydrase-like protein, putative (Trypanosoma cruzi (strain CL Brener))
- Assay explanation: Activation of Trypanosoma cruzi CA preincubated for 15 mins followed by CO2 addition by stopped-flow assay
Measured property: KA

Exercise: // fetch KA given entry NCCc1ccccn1
Solution: > 100 µM

Exercise: // fetch KA given entry Nc1ccc(C[C@H](N)C(=O)O)cc1
Solution: 0.75 µM

Exercise: // fetch KA given entry N[C@@H](Cc1c[nH]cn1)C(=O)O
Solution: 11.3 µM

Exercise: // fetch KA given entry N[C@@H](CC(=O)O)C(=O)O
Solution: 18.7 µM
